Molecular target: human NLRP3 (Homo sapiens (Human))
Sequence (Q96P20 whole entry): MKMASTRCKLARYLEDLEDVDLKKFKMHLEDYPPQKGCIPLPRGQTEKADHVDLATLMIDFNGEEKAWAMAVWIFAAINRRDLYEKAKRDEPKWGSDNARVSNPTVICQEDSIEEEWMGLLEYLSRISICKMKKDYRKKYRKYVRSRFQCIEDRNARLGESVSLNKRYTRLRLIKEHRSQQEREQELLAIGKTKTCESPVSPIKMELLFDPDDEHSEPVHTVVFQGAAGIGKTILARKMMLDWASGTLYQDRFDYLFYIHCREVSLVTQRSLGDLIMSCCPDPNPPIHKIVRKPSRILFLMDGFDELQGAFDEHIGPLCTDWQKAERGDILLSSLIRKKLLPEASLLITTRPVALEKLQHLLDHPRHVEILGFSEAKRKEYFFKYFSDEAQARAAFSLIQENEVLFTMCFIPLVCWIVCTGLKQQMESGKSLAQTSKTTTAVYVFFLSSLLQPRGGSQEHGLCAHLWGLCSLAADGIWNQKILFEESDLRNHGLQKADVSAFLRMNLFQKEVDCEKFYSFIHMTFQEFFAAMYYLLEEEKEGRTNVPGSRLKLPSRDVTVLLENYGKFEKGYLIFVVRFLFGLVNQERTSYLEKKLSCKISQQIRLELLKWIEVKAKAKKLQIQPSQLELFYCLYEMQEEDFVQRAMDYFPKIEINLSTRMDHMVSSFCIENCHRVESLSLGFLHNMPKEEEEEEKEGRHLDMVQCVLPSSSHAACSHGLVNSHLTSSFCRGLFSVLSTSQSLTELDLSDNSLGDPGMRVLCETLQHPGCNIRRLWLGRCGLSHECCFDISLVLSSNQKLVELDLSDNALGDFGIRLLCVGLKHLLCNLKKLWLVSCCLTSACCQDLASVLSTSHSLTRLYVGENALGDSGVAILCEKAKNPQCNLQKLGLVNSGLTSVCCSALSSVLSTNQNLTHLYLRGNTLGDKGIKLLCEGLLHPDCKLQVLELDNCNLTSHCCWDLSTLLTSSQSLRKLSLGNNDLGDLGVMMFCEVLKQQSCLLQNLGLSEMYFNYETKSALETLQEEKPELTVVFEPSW
Experiment: Scintillation Proximity (SPA) NLRP3 Assay: displacement of 3H-MCC950
Assay type: binding
Details: displacement of 3H-MCC950; read-out: SPA IC50
Recorded IC50 for the following compounds

A selection of reference data follows.
>>> recorded_result("Cc1ccc(C2(C(=O)N[C@H]3C[C@@H](C)CCN(c4nnn[nH]4)C3)CC2)c(O)c1F (single isomer, unassigned) [22D*]")
"1 to 10 µM"
>>> recorded_result("C[C@H]1CCN(c2nnn[nH]2)C[C@@H](NC(=O)C2(c3ccc(C4CCC4)cc3)CC2)C1 (single isomer, unassigned)")
"10 to 50 µM"
>>> recorded_result("C[C@@H]1CCN(c2nnn[nH]2)C[C@@H](NC(=O)C2(c3ccc(C(F)(F)F)c(OC(F)F)c3)CC2)C1 (single isomer, unassigned) [54B*]")
"10 to 50 µM"

Looking up C[C@@H]1C[C@H](NC(=O)C2(c3ccc(OC(F)F)cc3)CC2)[C@@H]2CC[C@H]1N2c1nnn[nH]1 (single isomer, unassigned) [35H*] , I found its IC50 recorded as > 100 µM

// IC50 value for C[C@@H]1CCN(c2nnn[nH]2)C[C@@H](NC(=O)C2(c3ccc(OC(F)F)cc3O)CC2)C1 (single isomer, unassigned) [70B*] : < 1 µM

# IC50 (compound: C[C@@H]1CC(NC(=O)C2(c3ccc(OC(F)F)cc3O)CC2)[C@H]2CC[C@@H]1N2c1nnn[nH]1 (single isomer, unassigned) [43A*] ) is < 1 µM

Per the records, this compound ( C[C@H]1C[C@@H](NC(=O)C2(c3ccc(OC(F)F)cc3)CC2)[C@H]2CC[C@@H]1N2c1nnn[nH]1 (single isomer, unassigned) [35E*] ) has IC50 equal to 1 to 10 µM

The recorded IC50 for C[C@@H]1C[C@H](NC(=O)C2(c3ccc(OC(F)F)cc3O)CC2)[C@H]2CC[C@@H]1N2c1nnn[nH]1 [43B*] is < 1 µM

For record O=C(N[C@H]1CCCCCN(c2nnn[nH]2)C1)C1(c2ccc(Cl)cc2)CC1 (single isomer, unassigned) [14B*] the listed IC50 is 10 to 50 µM

In plain terms, C[C@H]1C[C@@H](NC(=O)C2(c3c(O)cc(C4CC4)cc3OC(F)(F)F)CC2)CN(c2nnn[nH]2)C1 (single isomer, unassigned) [95A*] has a documented IC50 of < 1 µM

Entry C[C@H]1CCN(c2nnn[nH]2)C[C@H](NC(=O)C2(c3ccc(C(F)(F)F)c(F)c3O)CC2)C1 (single isomer, unassigned) [31C*] , IC50 reported as 10 to 50 µM

Lab note: measured IC50 of C[C@H]1CCN(c2nnn[nH]2)C[C@H](NC(=O)C2(c3ccc(Cl)cc3O)CC2)C1 (single isomer, unassigned) [60C*] was 1 to 10 µM

Form field IC50, entry COc1cc(F)c(C2(C(=O)N[C@H]3C[C@H](C)[C@H]4CC[C@@H]3N4c3nnn[nH]3)CC2)c(F)c1 (single isomer, unassigned) [102D*] : 10 to 50 µM

Cited source for all entries: patent US20260007684A1
